List of reverse-splicing fitness values.
B1: Azoarcus group I ribozyme (parent)
chain: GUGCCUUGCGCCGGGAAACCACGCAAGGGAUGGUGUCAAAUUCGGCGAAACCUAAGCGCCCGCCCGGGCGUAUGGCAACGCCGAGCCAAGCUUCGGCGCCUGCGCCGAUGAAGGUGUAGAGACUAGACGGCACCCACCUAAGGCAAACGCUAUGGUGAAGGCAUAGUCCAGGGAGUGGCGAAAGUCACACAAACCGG

Variants of: B1
testMethodNotes: reverse-splicing fitness (ratio to wild type); higher = more active; in vitro selection; Mg2+ level not given
The answer should be a number; do not append a unit.

mutations | reading
C82G A120G | 0.029
A111U A120U A145U C150G C169G U176G | 0.00207
C82A A120U C150U C169G | 0.00546
C82A A111G A120U A145C C150A C169A U176G | 0.00214
C82A A111G A120U A145U C169A | 0.00232
C82U A111U A120G A145C C169U U176C | 0.0108
A111C A120C A145C C150G C169G | 0.0064
C82G A111G A120C A145C C150G C169G U176C | 0.0101
C82G A111C A120U A145G C169A U176A | 0.00424
A111G A145G C150U U176C | 0.713

Request: // query reverse-splicing fitness value for entry A120G A145C C150A C169U U176A
Result: 0.0398

Request: Please look up its reverse-splicing fitness: C82A A120G A145U C150U C169A U176G
Result: 0.00418

Request: Would you kindly share the measured reverse-splicing fitness for C82A A120U A145U C150U ?
Result: 0.0889

Request: Could you tell me which reverse-splicing fitness is on file for C82U A111C A120U U176C ?
Result: 0.0103

Request: Form field: reported reverse-splicing fitness of C82U A111U A120U C150U C169G U176C
Result: 0.00317

Request: State the recorded reverse-splicing fitness for this entry: C82A A111G A120G A145G C150G C169A U176A
Result: 0.0139

Request: # input variant: C82G A111U A120C A145G C150G U176C ; wanted: its reverse-splicing fitness
Result: 0.0118

Request: Given the entry C82A A145G C150U C169U U176G , report its measured reverse-splicing fitness.
Result: 0.00555

Request: Bench note: what reverse-splicing fitness did C82U A111G C150A C169A U176C show?
Result: 0.0195

Request: # query: reverse-splicing fitness of entry C82A A111G A120C C150A C169A U176A
Result: 0.0277

Request: reverse-splicing fitness lookup needed for C82U A111G A120C A145U C150A C169U U176G , thanks.
Result: 0.00404

Request: I would be grateful if you could share the reported reverse-splicing fitness for C82G A111G A120C A145G C150A C169U .
Result: 0.0118

Request: Would you mind telling me what reverse-splicing fitness value was observed for A111C A120U C150G U176G ?
Result: 0.00356

Origin of values: the RNAGym collection of RNA variant scans (doi:10.1093/molbev/msab373)
